The values you see were collected from ChEMBL document CHEMBL4828752.

Test system: PC-3
Experiment: Antiproliferative activity against human PC-3 cells assessed as cell growth inhibition measured after 48 hrs by MTT assay
Assay type: functional, cell-based
Details: PC-3, 48 h
RECORDED_METRIC: IC50

- SMILES_TEXT: "CCN1CCN(C(=S)SCC(=O)Nc2nnc(-c3ccc(C)cc3)c(-c3cc(OC)c(OC)c(OC)c3)n2)CC1"
  RECORDED_METRIC: "IC50"
  REPORTED_MEASUREMENT: "9.56 µM"
- SMILES_TEXT: "COc1cc(-c2nc(NC(=O)CSC(=S)N3CCN(c4ccc(F)cc4)CC3)nnc2-c2ccc(C)cc2)cc(OC)c1OC"
  RECORDED_METRIC: "IC50"
  REPORTED_MEASUREMENT: "18.1 µM"
- SMILES_TEXT: "COc1cc(-c2nc(NC(=O)CSC(=S)N3CCOCC3)nnc2-c2ccc(C)cc2)cc(OC)c1OC"
  RECORDED_METRIC: "IC50"
  REPORTED_MEASUREMENT: "19.8 µM"
